Property: IC50; scope: individual compounds
- Tested Target: SHP2 enzyme (catalytic domain, amino acid sequence 224-528) (Homo sapiens, UniProt Q06124)
- Construct: purchased GenScript
- Sequence (Q06124 224-528): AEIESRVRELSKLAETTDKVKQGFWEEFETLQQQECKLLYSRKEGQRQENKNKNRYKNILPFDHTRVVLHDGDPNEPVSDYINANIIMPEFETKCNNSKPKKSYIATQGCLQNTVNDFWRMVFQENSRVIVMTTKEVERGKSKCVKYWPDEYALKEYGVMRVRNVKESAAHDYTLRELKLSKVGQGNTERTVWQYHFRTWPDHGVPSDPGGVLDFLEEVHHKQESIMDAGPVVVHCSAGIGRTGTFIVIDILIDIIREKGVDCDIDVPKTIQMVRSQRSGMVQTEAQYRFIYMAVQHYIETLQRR
- Experimental Protocol: SHP2 enzyme inhibition assay (DiFMUP substrate, fluorescence)
- Assay type: biochemical
- Protocol Conditions: SHP2 catalytic domain, DiFMUP substrate, 30 min pre-incubation; read-out: S HP2 I C50
Measured Property: IC50 (µM)

| Compound | Endpoint Value |
| --- | --- |
| CC1(O)CCC2(CC1)CN(c1ccc(NC(=O)C(=O)Nc3ccc(-c4cc5cc(F)c(-c6nnn[nH]6)cc5n4C4CCC4)cc3)cc1)C2 | 0.058 |
| CC1(O)CC2(CCN(c3ccc(NC(=O)C(=O)Nc4ccc(-c5cc6cc(F)c(-c7nnn[nH]7)cc6n5C5(C)CCC5)cc4)cc3)CC2)C1 | 0.061 |
| CC(C)(O)C1CCC2(CC1)CN(c1ccc(NC(=O)C(=O)Nc3ccc(-c4cc5cc(F)c(-c6nnn[nH]6)cc5n4C4CCC4)cc3)cc1)C2 | 0.089 |
| O=C(Nc1ccc(-c2cc3cc(F)c(-c4nnn[nH]4)cc3n2C2CCC2)cc1)C(=O)Nc1ccc(N2CCC3(CCCCO3)CC2)cc1 | 0.048 |
| CC(C)(O)C1CCN(c2ccc(NC(=O)C(=O)Nc3ccc(-c4cc5cc(F)c(-c6nnn[nH]6)cc5n4C4(C)CC4)cc3)cc2)CC1 | 0.174 |
| CC(C)(O)CCC1CCN(c2ccc(NC(=O)C(=O)Nc3ccc(-c4cc5cc(F)c(-c6nnn[nH]6)cc5n4C4CCC4)cc3)cc2)CC1 | 0.092 |
| CC1(n2c(-c3ccc(NC(=O)C(=O)Nc4ccc(N5CCC6(CCC(O)CC6)CC5)cc4)cc3)cc3cc(F)c(-c4nnn[nH]4)cc32)CCC1 | 0.061 |
| CC(C)(O)C1CC2(CCN(c3ccc(NC(=O)C(=O)Nc4ccc(-c5cc6cc(F)c(-c7nnn[nH]7)cc6n5C5(C)CCC5)cc4)cc3)CC2)C1 | 0.077 |
| O=C(Nc1ccc(C2=CCOCC2)cc1)C(=O)Nc1ccc(-c2cc3cc(F)c(-c4nnn[nH]4)cc3n2C2CCC2)cc1 | 0.102 |
| O=C(Nc1ccc(-c2cc3cc(F)c(-c4nnn[nH]4)cc3n2C2CCC2)cc1)C(=O)Nc1ccc(N2CC3CC(CO)CC3C2)cc1 (stereo not shown) | 0.055 |
| Cn1c(-c2cccc(NC(=O)C(=O)Nc3ccc(-c4ccsc4)cc3)c2)c(I)c2cc(C(=O)O)c(O)cc21 [Example 11a-1, reference compound] | 0.108 |
| CC1(C)CN(c2ccc(NC(=O)C(=O)Nc3ccc(-c4cc5cc(F)c(-c6nnn[nH]6)cc5n4C4CCC4)cc3)cc2)CC1CO (stereo not shown) | 0.152 |
| O=C(Nc1ccc(-c2cc3cc(F)c(-c4nnn[nH]4)cc3n2C2CCC2)cc1)C(=O)Nc1ccc(N2CC3CC2CO3)cc1 (stereo not shown) | 0.133 |
| O=C(Nc1ccc(-c2ccsc2)cc1)C(=O)Nc1ccc(-c2cc3cc(F)c(-c4nnn[nH]4)nc3n2C2CCC2)cc1 | 0.027 |
| O=C(Nc1ccc(-c2cc3cc(F)c(-c4nnn[nH]4)cc3n2C2CCC2)cc1)C(=O)Nc1ccc(N2CC(CO)C2)cc1 | 0.13 |
| O=C(Nc1ccc(-c2cc3cc(F)c(-c4nnn[nH]4)cc3n2C2CCC2)cc1)C(=O)Nc1ccc(N2CCC3(CCOC3)CC2)cc1 | 0.034 |
| O=C(Nc1ccc(-c2cc3cc(F)c(-c4nnn[nH]4)cc3n2C2CCC2)cc1)C(=O)Nc1ccc(N2CCC3(CCCOC3)CC2)cc1 | 0.065 |
| O=C(Nc1ccc(-c2ccsc2)cc1)C(=O)Nc1ccc(-c2cc3cnc(-c4nnn[nH]4)nc3n2C2CCC2)cc1 | 0.026 |
| CC1(O)CCC2(CCN(c3ccc(NC(=O)C(=O)Nc4ccc(-c5cc6cc(F)c(-c7nnn[nH]7)cc6n5C5CCC5)cc4)cc3)CC2)CC1 | 0.077 |
| O=C(Nc1ccc(-c2cc3cc(F)c(-c4nnn[nH]4)cc3n2C2CCC2)cc1)C(=O)Nc1ccc(N2CC3(CCC(O)C3)C2)cc1 (stereo not shown) | 0.108 |
| CC1(n2c(-c3ccc(NC(=O)C(=O)Nc4ccc(N5CCC6(CCOCC6)CC5)cc4)cc3)cc3cc(F)c(-c4nnn[nH]4)cc32)CCC1 | 0.02 |
| O=C(Nc1ccc(-c2cc3cc(F)c(-c4nnn[nH]4)cc3n2C2CCC2)cc1)C(=O)Nc1ccc(N2CCC3(CCC(O)C3)CC2)cc1 (stereo not shown) | 0.048 |
| Cn1cc(-c2ccc(NC(=O)C(=O)Nc3ccc(-c4cc5cc(F)c(-c6noc(=O)[nH]6)cc5n4C4CCC4)cc3)cc2)cn1 | 0.141 |
| O=C(Nc1ccc(-c2cc3cc(F)c(-c4nnn[nH]4)cc3n2C2CCC2)cc1)C(=O)Nc1ccc(N2CCC3(CCC(O)C3)C2)cc1 (stereo not shown) | 0.051 |
| COC1CC(n2c(-c3ccc(NC(=O)C(=O)Nc4ccc(N5CCC6(CCC(O)C6)CC5)cc4)cc3)cc3cc(F)c(-c4nnn[nH]4)cc32)C1 (stereo not shown) | 0.141 |

====

- Test system: BT549
- Experimental Protocol: CellTiter-Glo cell proliferation inhibition, BT549
- Type: cell-based
- Protocol Conditions: BT-549; BT549 (human breast cancer cell line), 72 hours; read-out: Example IC50 (µM) BT549
The reader will find reported IC50 values listed item by item below.

| Molecule | IC50 (µM) |
| --- | --- |
| O=C(Nc1ccc(-c2csc(CO)c2)cc1)C(=O)Nc1ccc(-c2cc3cc(F)c(-c4nnn[nH]4)cc3n2C2CCC2)cc1 [Example 1] | 0.121 |
| O=C(Nc1ccc(-c2cc3cc(F)c(-c4nnn[nH]4)cc3n2C2CCC2)cc1)C(=O)Nc1ccc(N2CCC3(CCC(O)C3)CC2)cc1 (centres unmarked) [Example 100] | 0.047 |

====

- Tested Target: CD45 (Homo sapiens, UniProt P08575)
- Construct: made in house; host or cells: E. coli
- Sequence (P08575 26-1306): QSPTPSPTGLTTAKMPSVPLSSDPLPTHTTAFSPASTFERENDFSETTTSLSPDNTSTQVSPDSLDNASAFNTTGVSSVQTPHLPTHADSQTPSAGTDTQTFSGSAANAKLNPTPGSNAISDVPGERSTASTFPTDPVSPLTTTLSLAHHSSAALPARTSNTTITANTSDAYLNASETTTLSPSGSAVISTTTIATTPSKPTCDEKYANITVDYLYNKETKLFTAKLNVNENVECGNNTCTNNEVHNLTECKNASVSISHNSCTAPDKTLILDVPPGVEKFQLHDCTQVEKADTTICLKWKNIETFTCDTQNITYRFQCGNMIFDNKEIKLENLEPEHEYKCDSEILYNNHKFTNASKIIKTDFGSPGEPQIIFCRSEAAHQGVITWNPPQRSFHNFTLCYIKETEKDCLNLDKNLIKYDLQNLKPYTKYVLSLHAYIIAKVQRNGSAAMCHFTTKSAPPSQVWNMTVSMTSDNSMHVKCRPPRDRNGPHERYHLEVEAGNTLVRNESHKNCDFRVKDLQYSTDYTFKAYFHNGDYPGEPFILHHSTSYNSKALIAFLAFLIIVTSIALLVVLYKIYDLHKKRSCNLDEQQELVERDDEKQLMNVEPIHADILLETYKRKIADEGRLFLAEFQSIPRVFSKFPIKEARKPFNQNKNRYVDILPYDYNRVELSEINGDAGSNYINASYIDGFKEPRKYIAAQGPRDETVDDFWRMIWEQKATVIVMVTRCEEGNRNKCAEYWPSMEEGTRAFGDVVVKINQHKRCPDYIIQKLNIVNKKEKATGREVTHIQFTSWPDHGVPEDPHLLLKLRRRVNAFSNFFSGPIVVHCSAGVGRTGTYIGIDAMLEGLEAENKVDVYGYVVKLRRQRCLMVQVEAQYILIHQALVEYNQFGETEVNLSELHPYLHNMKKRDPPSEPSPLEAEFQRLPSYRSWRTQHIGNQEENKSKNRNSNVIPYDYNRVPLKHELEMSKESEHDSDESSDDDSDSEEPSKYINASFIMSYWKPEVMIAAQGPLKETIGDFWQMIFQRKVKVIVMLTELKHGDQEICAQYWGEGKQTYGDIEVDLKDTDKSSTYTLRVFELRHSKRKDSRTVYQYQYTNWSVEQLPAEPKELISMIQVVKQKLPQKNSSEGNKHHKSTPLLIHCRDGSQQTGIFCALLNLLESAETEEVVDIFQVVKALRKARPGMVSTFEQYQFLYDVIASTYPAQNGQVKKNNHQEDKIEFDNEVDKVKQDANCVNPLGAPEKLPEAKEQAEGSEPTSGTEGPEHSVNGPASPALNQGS
- Experimental Protocol: Tyrosine phosphatase selectivity (pNPP substrate), CD45
- Type: biochemical
- Protocol Conditions: selectivity ratio CD45 over SHP2

| Molecule | IC50PTP/IC50SHP2 CD45 |
| --- | --- |
| O=C(Nc1ccc(-c2ccsc2)cc1)C(=O)Nc1ccc(-c2cc3cnc(-c4nnn[nH]4)nc3n2C2CCC2)cc1 [Example 131] | 969.2 |
| O=C(Nc1ccc(-c2ccsc2)cc1)C(=O)Nc1ccc(-c2cc3ccc(-c4nnn[nH]4)nc3n2C2CCC2)cc1 [Example 129] | 703.4 |
| O=C(Nc1ccc(-c2oc3cc(F)c(-c4nnn[nH]4)cc3c2C2CCC2)cc1)C(=O)Nc1ccc(N2CCC3(CCOC3)CC2)cc1 [Example 125] | 315.7 |
| O=C(Nc1ccc(-c2cc3cc(F)c(-c4nnn[nH]4)cc3n2C2CCC2)cc1)C(=O)Nc1ccc(N2CCOCC2)cc1 [Example 47] | 16.8 |
| O=C(Nc1ccc(-c2ccsc2)cc1)C(=O)Nc1ccc(-c2cc3cc(F)c(-c4nnn[nH]4)nc3n2C2CCC2)cc1 [Example 132] | 877.8 |
| O=C(Nc1ccc(-c2ccsc2)cc1)C(=O)Nc1ccc(-c2cc3cc(F)c(-c4nnn[nH]4)cc3n2C2CCC2)cc1 [Example 4] | 1724.1 |
| Cn1cc(-c2ccc(NC(=O)C(=O)Nc3ccc(-c4cc5cc(F)c(-c6nnc(C(F)(F)F)[nH]6)cc5n4C4CCC4)cc3)cc2)cn1 [Example 124] | 139.7 |
| Cn1cc(-c2ccc(NC(=O)C(=O)Nc3ccc(-c4cc5cc(F)c(-c6noc(=O)[nH]6)cc5n4C4CCC4)cc3)cc2)cn1 [Example 123] | 30.3 |
| CC1(n2c(-c3ccc(NC(=O)C(=O)Nc4ccc(N5CCC6(CCOC6)CC5)cc4)cc3)cc3cc(F)c(-c4nnn[nH]4)cc32)CCC1 [Example 68] | 72.5 |
| O=C(Nc1ccc(-c2cc3cc(F)c(-c4nnn[nH]4)cc3n2C2CCC2)cc1)C(=O)Nc1ccc(N2CCC3(CCOC3)CC2)cc1 [Example 67] | 77.0 |
| O=C(Nc1ccc(-c2cc3cc(F)c(-c4nnn[nH]4)cc3n2C2CCC2)cc1)C(=O)Nc1ccc(N2CC3COCC3C2)cc1 (stereo not drawn) [Example 114] | 25.1 |
| O=C(Nc1ccc(-c2ccsc2)cc1)C(=O)Nc1ccc(-c2oc3cc(F)c(-c4nnn[nH]4)cc3c2C2CCC2)cc1 [Example 130] | 2000 |
